Where do these numbers come from? They come from paper PMC7531004.

Listed here: items and their measured antibacterial activity/MIC.
- Test system: Streptococcus pyogenes SSI-9
- Study conditions: S. pyogenes
Where a SMILES comes first, the peptide text is derived from it. [ ]: non-standard residue; d: D form. The star is where a group is joined. NHCH2CH2OH = OCCN*; For = O=C*
Your answer is read as µg/mL, so omit the unit and give the number.

Molecule: CC(C)C[C@@H](NC(=O)[C@H](C)NC(=O)CNC(=O)[C@@H](NC=O)C(C)C)C(=O)N[C@@H](C)C(=O)N[C@@H](C(=O)N[C@H](C(=O)N[C@@H](C(=O)N[C@@H](Cc1c[nH]c2ccccc12)C(=O)N[C@@H](C(=O)N[C@@H](Cc1c[nH]c2ccccc12)C(=O)N[C@@H](C(=O)N[C@@H](Cc1c[nH]c2ccccc12)C(=O)N[C@@H](C(=O)N[C@@H](Cc1c[nH]c2ccccc12)C(=O)NCCO)C(C)C)C(C)C)C(C)C)C(C)C)C(C)C)C(C)C [B03] (For-VGA[dL]A[dV]V[dV]W[dV]W[dV]W[dV]W-NHCH2CH2OH)
Assay metric: antibacterial activity/MIC
Obs value: 0.13

Problem: Which value of antibacterial activity/MIC has been reported for CC(C)C[C@@H](NC(=O)[C@H](C)NC(=O)CNC(=O)[C@@H](NC=O)C(C)C)C(=O)N[C@@H](C)C(=O)N[C@H](CC(C)C)C(=O)N[C@H](C(=O)N[C@H](CC(C)C)C(=O)N[C@@H](Cc1c[nH]c2ccccc12)C(=O)N[C@H](CC(C)C)C(=O)N[C@@H](Cc1c[nH]c2ccccc12)C(=O)N[C@@H](C(=O)N[C@@H](Cc1c[nH]c2ccccc12)C(=O)N[C@@H](C(=O)N[C@@H](Cc1c[nH]c2ccccc12)C(=O)NCCO)C(C)C)[C@H](C)O)C(C)C [B11] (For-VGA[dL]A[dL]V[dL]W[dL]W[dT]W[dV]W-NHCH2CH2OH) in the records?
Solution: 0.5
